Target: T1, human Y2 receptor (human, UniProt P49146 1-381)
T1 construct: whole, on cells; used as membrane fraction of hY2R/CHO cells; also called human NPY2R; hY2R
T1 sequence (looked up): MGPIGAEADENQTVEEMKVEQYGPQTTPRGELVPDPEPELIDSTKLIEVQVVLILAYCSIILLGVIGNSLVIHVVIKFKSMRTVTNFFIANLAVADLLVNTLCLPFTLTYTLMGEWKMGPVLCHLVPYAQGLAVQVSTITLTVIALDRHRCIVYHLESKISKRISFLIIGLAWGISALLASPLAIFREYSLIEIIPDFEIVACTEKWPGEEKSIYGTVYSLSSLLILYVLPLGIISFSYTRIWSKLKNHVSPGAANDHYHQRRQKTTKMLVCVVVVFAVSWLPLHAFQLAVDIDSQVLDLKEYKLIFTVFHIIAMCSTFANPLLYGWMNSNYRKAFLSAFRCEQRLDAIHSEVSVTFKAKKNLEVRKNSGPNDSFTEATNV
Experiment: RBA: [125I]-PYY displacement, hY2R/CHO membranes
Starred links: 1 amine or outer side, 2 acyl side, 3 side chain; linkers in the order of their positions; H or OH if unused. Non-standard residues stand in square brackets, D forms with d. No end group written: not given here. *: point of attachment. Ala(piperidin-4-yl) = O=C([C@H](CC1CCN([*:3])CC1)N[*:1])[*:2]; Phe(4-Me) = Cc1ccc(C[C@H](N)C(=O)O)cc1; Amidino = amidino group, N=C(N)*; Cha = N[C@@H](CC1CCCCC1)C(=O)O; 4Amb = NCc1ccc(C(=O)O)cc1; Orn = NCCC[C@H](N)C(=O)O; Inp = O=C(O)C1CCNCC1; Bz = O=C(c1ccccc1)*
# reported IC50 Ratio (vs PYY(3-36)); entries follow
Please give a number only; it is taken to be in ratio.

// query Quick check: IC50 Ratio (vs PYY(3-36)) of [4Amb]RAYLNLITRQRY-NH2 (N-terminus assumed; SMILES CC[C@H](C)[C@H](NC(=O)[C@H](CC(C)C)NC(=O)[C@H](CC(N)=O)NC(=O)[C@H](CC(C)C)NC(=O)[C@H](Cc1ccc(O)cc1)NC(=O)[C@H](C)NC(=O)[C@H](CCCNC(=N)N)NC(=O)c1ccc(CN)cc1)C(=O)N[C@H](C(=O)N[C@@H](CCCNC(=N)N)C(=O)N[C@@H](CCC(N)=O)C(=O)N[C@@H](CCCNC(=N)N)C(=O)N[C@@H](Cc1ccc(O)cc1)C(N)=O)[C@@H](C)O, also called compound No. 20) [4-Aminomethylbenzoyl-[Ala26, Ile31]-PYY(25-36)] ?
// result 2.8

// query Quick check: IC50 Ratio (vs PYY(3-36)) of Amidino-G[Inp]RH[Cha]INWITRQR[Cha]-NH2 (SMILES CC[C@H](C)[C@H](NC(=O)[C@H](CC1CCCCC1)NC(=O)[C@H](Cc1c[nH]cn1)NC(=O)[C@H](CCCNC(=N)N)NC(=O)C1CCN(C(=O)CNC(=N)N)CC1)C(=O)N[C@@H](CC(N)=O)C(=O)N[C@@H](Cc1c[nH]c2ccccc12)C(=O)N[C@H](C(=O)N[C@H](C(=O)N[C@@H](CCCNC(=N)N)C(=O)N[C@@H](CCC(N)=O)C(=O)N[C@@H](CCCNC(=N)N)C(=O)N[C@@H](CC1CCCCC1)C(N)=O)[C@@H](C)O)[C@@H](C)CC, also called compound No. 96) [Amidino-[Gly23, Pic(4)24, Cha27,36, Ile 28,31, Trp30]-PYY(23-36)] ?
// result 1.9

// query Quick check: IC50 Ratio (vs PYY(3-36)) of [4Amb][Orn]AYINLITRQRY-NH2 (N-terminus assumed; SMILES CC[C@H](C)[C@H](NC(=O)[C@H](Cc1ccc(O)cc1)NC(=O)[C@H](C)NC(=O)[C@H](CCCN)NC(=O)c1ccc(CN)cc1)C(=O)N[C@@H](CC(N)=O)C(=O)N[C@@H](CC(C)C)C(=O)N[C@H](C(=O)N[C@H](C(=O)N[C@@H](CCCNC(=N)N)C(=O)N[C@@H](CCC(N)=O)C(=O)N[C@@H](CCCNC(=N)N)C(=O)N[C@@H](Cc1ccc(O)cc1)C(N)=O)[C@@H](C)O)[C@@H](C)CC, also called compound No. 10) [4-Aminomethylbenzoyl-[Orn25, Ala26, Ile28,31]-PYY(25-36)] ?
// result 39

// query Quick check: IC50 Ratio (vs PYY(3-36)) of Bz-RH[Ala(piperidin-4-yl)]INWITRQR[Cha]-NH2 (also: Ala(4Pip) D or L form not assigned (later peak), Ala(4Pip) is any of D-form and L-form; also called compound No. 66) [Benzoyl-[Ala(4Pip)27, Ile28,31, Trp30, Cha36]-PYY(25-36)] ?
// result 4.8

// query Quick check: IC50 Ratio (vs PYY(3-36)) of [4Amb]RAYINLITRQR[Phe(4-Me)]-NH2 (N-terminus assumed; SMILES CC[C@H](C)[C@H](NC(=O)[C@H](Cc1ccc(O)cc1)NC(=O)[C@H](C)NC(=O)[C@H](CCCNC(=N)N)NC(=O)c1ccc(CN)cc1)C(=O)N[C@@H](CC(N)=O)C(=O)N[C@@H](CC(C)C)C(=O)N[C@H](C(=O)N[C@H](C(=O)N[C@@H](CCCNC(=N)N)C(=O)N[C@@H](CCC(N)=O)C(=O)N[C@@H](CCCNC(=N)N)C(=O)N[C@@H](Cc1ccc(C)cc1)C(N)=O)[C@@H](C)O)[C@@H](C)CC, also called compound No. 15) [4-Aminomethylbenzoyl-[Ala26, Ile28,31, Phe(4Me)36]-PYY(25-36)] ?
// result 8.7
